System: Human alphaherpesvirus 2
Assay: Antiviral activity against Herpes simplex virus 2 infected in african green monkey Vero cells assessed as maximal nontoxic dose that showed the highest viral reduction factor after 48 hrs by end-point titration technique
Type: functional
Property name: Activity (µg/mL)
Your answer is read as µg/mL, so omit the unit and give the number.

Known Activity results, listed for orientation:
Sample smiles	Activity (µg/mL)
CC1(C)CCC[C@@]2(C)[C@H]1CCC1=CC(=O)[C@]3(C)CC[C@]12C3	20
CC1(C)CCC[C@@]2(C)[C@H]1C[C@@H](O)[C@@H]1CC(=O)[C@]3(C)CC[C@]12C3	30
CC(=O)O[C@H]1C[C@H]2C(C)(C)CCC[C@]2(C)[C@@]23CC[C@](C)(C2)[C@@H](O)C[C@H]13	25

Known value: Human alphaherpesvirus 2 Activity of the molecule `CC1(C)CCC[C@@]2(C)[C@H]1CCC1=CC(=O)[C@@]3(C)C[C@@]12CC3=O` equals 30

* * *

Test system: CHO
Assay: Cytotoxicity against CHO cells after 48 hrs
Type: cell-based, Cricetulus griseus
Conditions: chinese hamster
Property name: CC100 (µg/mL)
Please state the figure in µg/mL; there is no need to write the unit.

Molecule	CC100 / µg/mL
COC(=O)CC(=O)O[C@@H]1C[C@@H]2CC[C@H]3C(C)(C)CCC[C@]3(C)[C@]23CC[C@]1(C)C3 [METHYL THYRSIFLORIN A]	28

get_value(item= COC(=O)CC(=O)O[C@@H]1C[C@@H]2[C@@H](OC(C)=O)C[C@H]3C(C)(C)CCC[C@]3(C)[C@]23CC[C@]1(C)C3 [METHYL THYRSIFLORIN B ACETATE] , readout=CC100) returns 30

CC100 for `CC1(C)CCC[C@@]2(C)[C@H]1C[C@@H](O)C1=CC(=O)[C@]3(C)CC[C@]12C3` is 20

Lab book: CC100 of `CC1(C)CCC[C@@]2(C)[C@H]1CC[C@H]1CC(=O)[C@]3(C)CC[C@]12C3` noted as 24

Quick note, CC100 for CC(=O)O[C@H]1C[C@H]2C(C)(C)CCC[C@]2(C)[C@@]23CC[C@](C)(C2)[C@H](OC(C)=O)C[C@H]13 [THYRSIFLORIN C DIACETATE] landed at 40

CC100 in this record for CC1(C)CCC[C@@]2(C)[C@H]1C[C@H](O)[C@H]1C[C@@H](O)[C@]3(C)CC[C@]12C3 [THYRSIFLORIN C] : 45

* * *

Parameter Activity: see the listing below.
Tested on: Human alphaherpesvirus 2
Assay: Antiviral activity against Herpes simplex virus 2 infected in african green monkey Vero cells assessed as maximal nontoxic dose that showed the highest viral reduction factor after 48 hrs by end-point titration technique
Type: functional

Examples with answers:
Compound	Target of assay	Activity
CC(=O)O[C@H]1C[C@H]2C(C)(C)CCC[C@]2(C)[C@@]23CC[C@](C)(C2)[C@H](OC(C)=O)C[C@H]13 [THYRSIFLORIN C DIACETATE]	Human alphaherpesvirus 2	10 µg/mL
COC(=O)CC(=O)O[C@@H]1C[C@@H]2CC[C@H]3C(C)(C)CCC[C@]3(C)[C@]23CC[C@]1(C)C3 [METHYL THYRSIFLORIN A]	Human alphaherpesvirus 2	15 µg/mL
CC1(C)CCC[C@@]2(C)[C@H]1C[C@@H](O)C1=CC(=O)[C@]3(C)CC[C@]12C3	Human alphaherpesvirus 2	14 µg/mL
Nc1nc2c(ncn2COCCO)c(=O)[nH]1 [ACYCLOVIR]	Human alphaherpesvirus 2	6 µg/mL
CC1(C)CCC[C@@]2(C)[C@H]1C[C@H](O)[C@H]1CC(=O)[C@]3(C)CC[C@]12C3	Human alphaherpesvirus 2	10 µg/mL

The compound `CC1(C)CCC[C@@]2(C)[C@H]1CC[C@H]1C[C@@H](O)[C@]3(C)CC[C@]12C3` on Human alphaherpesvirus 2: Activity was 7.5 µg/mL
